Data origin: patent US20240270821A1

Measured pEC50 by item
biological target: hGIPR (Homo sapiens, UniProt P48546); assay: Functional cAMP activation in the presence of 0.1% casein (no HSA); type: cell-based; settings: 0.1% casein, no HSA; geometric mean; read-out: Relative cAMP EC50, hGIPR;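 further: intracellular cAMP rise after 30 min at 37 °C read by HTRF against a standard curve, scaled between buffer alone (0%) and top control ligand concentration (100%), four-parameter fit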
Sequence (P48546 22-466): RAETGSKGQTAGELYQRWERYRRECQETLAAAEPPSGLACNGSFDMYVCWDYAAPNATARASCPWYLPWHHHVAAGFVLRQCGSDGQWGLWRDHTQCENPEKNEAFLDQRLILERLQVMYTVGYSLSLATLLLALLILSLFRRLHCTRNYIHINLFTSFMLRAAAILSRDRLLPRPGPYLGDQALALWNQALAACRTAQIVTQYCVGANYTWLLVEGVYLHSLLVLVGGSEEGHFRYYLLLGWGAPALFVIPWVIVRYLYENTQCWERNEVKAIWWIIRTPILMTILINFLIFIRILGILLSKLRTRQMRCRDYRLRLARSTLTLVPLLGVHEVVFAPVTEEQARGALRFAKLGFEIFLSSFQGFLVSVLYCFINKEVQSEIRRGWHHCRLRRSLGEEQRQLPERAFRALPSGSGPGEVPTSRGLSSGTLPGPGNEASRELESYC
pEC50: −log10 of the molar value. Starred links: 1 amine or outer side, 2 acyl side, 3 side chain; linkers in the order of their positions; H or OH if unused. Non-standard residues stand in square brackets, D forms with d. Groups on a side chain read outwards from the residue. No end group written: not given here. *: point of attachment. C18 diacid = O=C(O)CCCCCCCCCCCCCCCCC(=O)*; αMePhe(2-F) = C[C@](N)(Cc1ccccc1F)C(=O)O; γGlu = O=C(O)[C@H](CCC(=O)[*:2])N[*:1]; αMe4Pal = C[C@](N)(Cc1ccncc1)C(=O)O; αMeY = C[C@](N)(Cc1ccc(O)cc1)C(=O)O; 4Pal = N[C@@H](Cc1ccncc1)C(=O)O; αMeL = CC(C)C[C@](C)(N)C(=O)O; αMeS = C[C@](N)(CO)C(=O)O; Orn = NCCC[C@H](N)C(=O)O; AEEA = NCCOCCOCC(=O)O; Aib = CC(C)(N)C(=O)O

{"columns": ["SUBSTANCE", "pEC50"],
 "data": [
  ["H-Y[Aib]Q[dA]T[αMePhe(2-F)]TSD[4Pal][αMeS]I[αMeL]LD[Orn]K([γGlu-γGlu-C18 diacid])AQ[Aib]EFI[dE][αMeY]LIEGGPSSGAPPPSGGGE-NH2 [Example 1225]", 10.27],
  ["Y[Aib]QGT[αMePhe(2-F)]TSD[4Pal][αMeS]I[αMeL]LD[Orn][Orn]([AEEA-γGlu-C18 diacid])AQ[αMe4Pal]EFI[dE][αMeY]LVEGGPSSGAPPPSGS-NH2 [Example 1210]", 11.15],
  ["H-Y[Aib]QGT[αMePhe(2-F)]TSD[4Pal][αMeS]I[αMeL]LD[Orn]K([AEEA-γGlu-C18 diacid])AQ[αMe4Pal]EFI[dE][αMeY]LIEGGPPS[Aib][Orn]PPP[Orn]GGGE-NH2 [Example 1197]", 11.18],
  ["H-Y[Aib]QGT[αMePhe(2-F)]TSD[4Pal][αMeS]I[αMeL]LD[Orn]K([AEEA-γGlu-C18 diacid])AQ[αMe4Pal]EFI[dE][αMeY]LIEGGPSSGAPPPSGGGEEE-NH2 [Example 1215]", 10.97],
  ["H-Y[Aib]QGT[αMePhe(2-F)]TSD[4Pal][αMeS]I[αMeL]LD[Orn]K([AEEA-γGlu-C18 diacid])AQ[αMe4Pal]EFI[dE][αMeY]LIEGGPPS[Aib][Orn]PPPSGGGE-NH2 [Example 1199]", 11.12],
  ["H-Y[Aib]Q[dA]T[αMePhe(2-F)]TSD[4Pal][αMeS]I[αMeL]LD[Orn]K([AEEA-γGlu-C18 diacid])AQ[Aib]EFI[dE][αMeY]LIEGGPSSGAPPPSGSE-NH2 [Example 1222]", 10.07],
  ["H-Y[Aib]QGT[αMePhe(2-F)]TSD[4Pal][αMeS]I[αMeL]LD[Orn]QAQ[αMe4Pal]EFI[dE][αMeY]LIEGGPSSGAPPPSGS-NH2 [Example 1232]", 11.05],
  ["Y[Aib]QGT[αMePhe(2-F)]TSD[4Pal][αMeS]I[αMeL]LD[Orn]QAQ[αMe4Pal]EFI[dE][αMeY]LIEGGPSSGAPPPSGGGE-NH2 [Example 1234]", 10.87],
  ["H-Y[Aib]QGT[αMePhe(2-F)]TSD[4Pal][αMeS]I[αMeL]LD[Orn][Orn]([AEEA-γGlu-C18 diacid])AQ[αMe4Pal]EFI[dE][αMeY]LIEGGPSSGAPPPSGSE-NH2 [Example 1212]", 11.15],
  ["H-Y[Aib]Q[dA]T[αMePhe(2-F)]TSD[4Pal]SI[αMeL]LD[Orn]K([AEEA-γGlu-C18 diacid])AQ[αMe4Pal]EFI[dE][αMeY]LIEGGPSSGAPPPSGS-NH2 [Example 1206]", 10.17]
]}
